Biological target: Dual specificity mitogen-activated protein kinase kinase 7 (Homo sapiens) (UniProt O14733)
Sequence (O14733 whole entry): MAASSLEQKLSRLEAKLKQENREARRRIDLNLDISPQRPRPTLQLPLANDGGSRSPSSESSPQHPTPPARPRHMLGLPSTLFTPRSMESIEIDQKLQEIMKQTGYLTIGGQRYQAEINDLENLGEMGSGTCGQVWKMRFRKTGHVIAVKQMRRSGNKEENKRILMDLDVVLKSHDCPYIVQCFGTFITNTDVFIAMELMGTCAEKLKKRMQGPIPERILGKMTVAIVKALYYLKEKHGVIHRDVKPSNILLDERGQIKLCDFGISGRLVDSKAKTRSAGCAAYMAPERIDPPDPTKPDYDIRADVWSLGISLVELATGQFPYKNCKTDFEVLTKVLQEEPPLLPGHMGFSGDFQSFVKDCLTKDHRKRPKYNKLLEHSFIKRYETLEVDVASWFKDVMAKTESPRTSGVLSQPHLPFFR
Conditions: at 10 µM
MEASUREMENT_TYPE: residual activity (%)

| COMPOUND | VALUE_OBSERVED |
| --- | --- |
| COc1ccc2c(c1)c(C1=C(c3c[nH]c4ccccc34)C(=O)NC1=O)cn2CCCN(C)C | 104 |
| COc1cc2nccc(Oc3ccc(NC(=S)NC(=O)c4ccccc4C)cc3)c2cc1OC | 87 |
| O=c1c(-c2ccc(F)cc2)c(-c2ccncc2)[nH]n1-c1ccc(Cl)cc1 | 22 |
| O=C1C(Cl)=C(N2C(=O)CCC2=O)C(=O)c2ccccc21 | 78 |
| O=C1NC(=O)c2c1c1c3ccccc3[nH]c1n1cncc21 | 27 |
| CCOc1nc(NC(=O)Cc2cc(OC)ccc2OC)cc(N)c1C#N | 4 |
| O=C1NC(=O)C(c2cn(CCCn3ccnc3)c3ccccc23)=C1Nc1ccccc1 | 121 |
| CC(C)(C)n1nc(Cc2cccc3ccccc23)c2c(N)ncnc21 | 94 |
| COc1ccc(Cl)cc1NC(=O)Nc1cc(C)nc2ccccc12 | 99 |
| NCCNc1ncc(C(N)=O)c(Nc2cccc(C(F)(F)F)c2)n1 | 38 |
| O=c1cc(N2CCOCC2)oc2c(-c3ccccc3)cccc12 | 76 |
| O=C(Nc1nc2ccccc2n1CCN1CCOCC1)c1cccc([N+](=O)[O-])c1 | 87 |
| O=C(O)/C=C/c1cc(Br)c(Br)c(Br)c1Br | 71 |
| NC(=O)Nc1sc(-c2ccc(F)cc2)cc1C(N)=O | 44 |
| O=C(c1cc2cc(O)ccc2[nH]1)c1cc2cc(O)ccc2[nH]1 | 63 |
| CCCC(=O)Oc1ccc2[nH]c(C(=O)c3cc4ccccc4[nH]3)cc2c1 | 81 |
| CSc1nc(-c2ccc(F)cc2)c(-c2ccnc(NC(C)c3ccccc3)c2)[nH]1 (stereo not drawn) | 48 |
| O=C(c1ccccc1)c1ccc(N2CCOCC2)cc1O | 85 |
| Nc1n[nH]c2nc3ccccc3nc12 | 81 |
| O=c1cc(N2CCOCC2)oc2c1ccc1ccccc12 | 94 |
| Fc1ccc(-c2nc3n(c2-c2ccncc2)CCS3)cc1 | 83 |
| O=C1NC(=O)C(c2cn(CCCO)c3ncccc23)=C1c1cnccn1 | 99 |
| N#Cc1c(NC(=O)c2cccc3ccccc23)sc2c1CCCC2 | 82 |

Entry source: ChEMBL document CHEMBL2218924
